These data points were gathered from patent US20150272939A1.

Target: JARID1B (Homo sapiens, UniProt Q9UGL1)
Construct: The FLAG tagged full length JARID1B enzyme was expressed in Sf21 insect cells using FLAG-JARID1B baculoviruses; FLAG (N); made in house; host or cells: Sf21 insect cells (baculovirus)
Sequence (Q9UGL1 whole entry): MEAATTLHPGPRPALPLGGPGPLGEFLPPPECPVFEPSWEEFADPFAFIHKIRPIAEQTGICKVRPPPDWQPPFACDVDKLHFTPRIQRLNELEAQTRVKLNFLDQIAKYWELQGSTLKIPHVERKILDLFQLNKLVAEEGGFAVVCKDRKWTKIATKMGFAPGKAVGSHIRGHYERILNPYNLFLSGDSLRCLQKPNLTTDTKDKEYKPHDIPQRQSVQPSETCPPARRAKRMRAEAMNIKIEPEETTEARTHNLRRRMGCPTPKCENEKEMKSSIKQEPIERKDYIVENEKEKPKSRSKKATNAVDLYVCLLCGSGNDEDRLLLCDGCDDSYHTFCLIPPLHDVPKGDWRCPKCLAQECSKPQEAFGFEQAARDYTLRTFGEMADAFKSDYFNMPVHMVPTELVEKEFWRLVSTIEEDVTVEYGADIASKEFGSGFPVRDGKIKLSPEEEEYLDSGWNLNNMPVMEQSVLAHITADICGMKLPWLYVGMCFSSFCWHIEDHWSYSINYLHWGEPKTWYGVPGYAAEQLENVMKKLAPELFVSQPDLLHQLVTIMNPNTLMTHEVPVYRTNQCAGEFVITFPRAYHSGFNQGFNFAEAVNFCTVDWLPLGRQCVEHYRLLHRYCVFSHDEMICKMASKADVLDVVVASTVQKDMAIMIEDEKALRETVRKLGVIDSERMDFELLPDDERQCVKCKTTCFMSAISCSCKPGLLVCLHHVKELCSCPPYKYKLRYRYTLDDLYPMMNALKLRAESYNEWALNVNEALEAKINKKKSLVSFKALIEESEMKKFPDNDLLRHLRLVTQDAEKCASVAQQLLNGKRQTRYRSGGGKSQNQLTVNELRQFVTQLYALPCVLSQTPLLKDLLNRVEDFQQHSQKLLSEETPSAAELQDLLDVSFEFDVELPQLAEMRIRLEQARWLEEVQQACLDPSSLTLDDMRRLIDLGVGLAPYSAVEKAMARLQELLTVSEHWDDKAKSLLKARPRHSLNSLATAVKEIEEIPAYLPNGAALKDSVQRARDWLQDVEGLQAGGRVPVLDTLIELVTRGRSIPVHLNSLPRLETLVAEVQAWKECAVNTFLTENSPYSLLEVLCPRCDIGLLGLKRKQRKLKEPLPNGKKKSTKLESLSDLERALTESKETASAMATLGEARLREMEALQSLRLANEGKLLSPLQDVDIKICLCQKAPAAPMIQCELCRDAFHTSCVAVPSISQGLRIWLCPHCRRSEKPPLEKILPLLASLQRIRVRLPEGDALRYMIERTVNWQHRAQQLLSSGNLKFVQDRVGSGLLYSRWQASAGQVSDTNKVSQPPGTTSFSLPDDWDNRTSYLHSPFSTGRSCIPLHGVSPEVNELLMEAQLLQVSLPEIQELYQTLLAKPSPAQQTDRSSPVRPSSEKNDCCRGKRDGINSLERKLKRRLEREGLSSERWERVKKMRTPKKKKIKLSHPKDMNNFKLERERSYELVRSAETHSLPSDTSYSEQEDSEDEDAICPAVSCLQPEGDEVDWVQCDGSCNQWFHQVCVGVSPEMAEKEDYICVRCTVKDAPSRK
Assay: FLAG-JARID1B histone demethylase assay with AlphaScreen detection (HTS and dose response);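 for Assay − Artifact Signal (percent): compound tested at 20 µM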
Type: biochemical
Conditions: assay signal minus artifact signal
Where a name gives a salt, the structure may show the parent alone.
We label by threshold. Values of Assay − Artifact Signal (percent) strictly beneath 20% are label 1. Values of 20% and up are label 0.

(Q) Assay − Artifact Signal (percent) under 20%? Item: Cl.Oc1cc2c(cc1O)[C@H]1c3ccccc3CN[C@@H]1CC2 [YU221065, reference compound]
(A) label 0

(Q) Assay − Artifact Signal (percent) under 20%? Item: NC(=O)NO [YU033863, HYDROXYUREA, reference compound]
(A) label 0

(Q) Assay − Artifact Signal (percent) under 20%? Item: O=C1c2c(O)ccc(O)c2C(=O)c2c(NCCNCCO)ccc(NCCNCCO)c21 [YU034420, MITOXANTHRONE HYDROCHLORIDE, reference compound]
(A) label 1

(Q) Assay − Artifact Signal (percent) under 20%? Item: S=C(Nc1ccc2c(c1)OCO2)Nn1cnnc1
(A) label 1

(Q) Assay − Artifact Signal (percent) under 20%? Item: CC(=O)C(C)O[Si](C(C)C)(C(C)C)C(C)C (stereo not drawn)
(A) label 1

Next compound, please.
(Q) Assay − Artifact Signal (percent) under 20%? Item: COc1ccc(C2CC(c3cccnc3)Nc3nnnn32)cc1 (stereo not drawn)
(A) label 1

---

Molecular target: JARID1B (Homo sapiens, UniProt Q9UGL1)
Construct: The FLAG tagged full length JARID1B enzyme was expressed in Sf21 insect cells using FLAG-JARID1B baculoviruses; FLAG (N); made in house; host or cells: Sf21 insect cells (baculovirus)
Assay: FLAG-JARID1B histone demethylase assay with AlphaScreen detection (HTS and dose response)
Type: biochemical
Conditions: high-throughput screen, compound 20 μM, standard demethylase conditions (10 μM α-KG, 50 μM Fe (II)); read-out: Inhibitory effect (percent)
The following molecules are listed with their measured inhibition at 20 µM values.
Quick reminder: number only, in %, skip the unit.

(Q) inhibition at 20 µM lookup needed for O=C(O[C@@H]1Cc2c(O)cc(O)cc2O[C@@H]1c1cc(O)c(O)c(O)c1-c1c([C@H]2Oc3cc(O)cc(O)c3C[C@H]2OC(=O)c2cc(O)c(O)c(O)c2)cc(O)c(O)c1O)c1cc(O)c(O)c(O)c1 (stereo in doubt) [YU155084, 2,2-BISEPIGALLO- CATECHIN DIGALLATE, reference compound] , thanks.
(A) 102

Others:
(Q) inhibition at 20 µM lookup needed for COc1cc(C=O)cc(Cl)c1OCc1cccc([N+](=O)[O-])c1 [YU152587] , thanks.
(A) 98.2

---

Target: JARID1B (Homo sapiens)
Construct: The FLAG tagged full length JARID1B enzyme was expressed in Sf21 insect cells using FLAG-JARID1B baculoviruses; FLAG (N); made in house; host or cells: Sf21 insect cells (baculovirus)
Test: FLAG-JARID1B histone demethylase assay with AlphaScreen detection (HTS and dose response);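 note: FLAG-tagged JARID1B at 4 nM acting on a biotinylated H3K4me3 peptide, demethylation read by AlphaScreen luminescence, with hits checked against bio-H3K4me2 without enzyme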;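 for Assay − Artifact Signal (percent): compound tested at 20 µM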
Type: biochemical
Conditions: assay signal minus artifact signal
MEASUREMENT_LABEL: Assay − Artifact Signal (percent) (%)
Quick reminder: number only, in %, skip the unit.

(Q) Field: Assay − Artifact Signal (percent) (JARID1B (Homo sapiens)). Entry: O=C(Nc1ccc(N2CCC(c3ccccc3)C2)c(C(=O)O)c1)c1cccc(Cl)c1 (stereo not shown)
(A) 9.53

(Q) Field: Assay − Artifact Signal (percent) (JARID1B (Homo sapiens)). Entry: CCC(=O)Nc1cnc(N2CCN(c3ccc(Cl)cc3)CC2)c(C(=O)O)c1
(A) 14.69

(Q) Field: Assay − Artifact Signal (percent) (JARID1B (Homo sapiens)). Entry: c1ccc(-c2nc3ccccn3c2Nc2ccc3c(c2)OCCO3)nc1
(A) 88.40

(Q) Field: Assay − Artifact Signal (percent) (JARID1B (Homo sapiens)). Entry: C[C@](N)(Cc1ccc(O)c(O)c1)C(=O)O [YU033903, METHYLDOPA, reference compound]
(A) 30.75

(Q) Field: Assay − Artifact Signal (percent) (JARID1B (Homo sapiens)). Entry: COC(=O)c1cc(Br)c(OCc2ccccc2)c(CO[Si](C(C)(C)C)(C(C)(C)C)C(C)(C)C)c1OCc1ccccc1
(A) 26.59

(Q) Field: Assay − Artifact Signal (percent) (JARID1B (Homo sapiens)). Entry: O=c1c(O)cc([C@H]2Oc3cc(O)cc(O)c3C[C@H]2O)cc2c([C@H]3Oc4cc(O)cc(O)c4C[C@H]3O)cc(O)c(O)c12 [YU155003, THEAFLAVIN, reference compound]
(A) 13.49

Others:
(Q) Field: Assay − Artifact Signal (percent) (JARID1B (Homo sapiens)). Entry: N#CC(=Cc1ccncc1)c1nc2cc(C(F)(F)F)ccc2s1 (single isomer, unassigned)
(A) 99.03

(Q) Field: Assay − Artifact Signal (percent) (JARID1B (Homo sapiens)). Entry: O=c1oc2c(O)c(O)cc3c(=O)oc4c(O)c(O)cc1c4c23 [YU034320, ELLAGIC ACID, reference compound]
(A) 9.70

(Q) Field: Assay − Artifact Signal (percent) (JARID1B (Homo sapiens)). Entry: CC(O)Cc1nnc(S)n1-c1ccccc1 (stereo not shown)
(A) 40.83

(Q) Field: Assay − Artifact Signal (percent) (JARID1B (Homo sapiens)). Entry: c1ccc(-c2nn3c(Cn4cnc5ccccc54)nnc3s2)cc1
(A) 21.66
